biological target: Human adenosine A2A receptor (Homo sapiens, UniProt P29274); assay: Human adenosine A2A receptor calcium flux assay; conditions: A2A stable CHO cell strain, antagonist mode against agonist NECA at EC80, FLIPR Fluo-4
Sequence (P29274 whole entry): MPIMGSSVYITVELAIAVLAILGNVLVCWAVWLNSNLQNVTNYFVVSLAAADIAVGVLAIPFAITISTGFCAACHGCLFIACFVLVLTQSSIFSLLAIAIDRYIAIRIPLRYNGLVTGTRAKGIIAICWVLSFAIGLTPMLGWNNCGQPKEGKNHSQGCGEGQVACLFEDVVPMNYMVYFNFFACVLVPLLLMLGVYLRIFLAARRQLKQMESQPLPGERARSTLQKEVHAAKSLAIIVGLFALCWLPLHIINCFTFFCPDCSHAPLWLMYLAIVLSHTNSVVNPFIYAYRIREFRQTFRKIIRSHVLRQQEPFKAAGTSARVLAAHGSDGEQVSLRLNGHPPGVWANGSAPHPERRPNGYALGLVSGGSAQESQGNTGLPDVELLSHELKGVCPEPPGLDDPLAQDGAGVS
pIC50: −log10 of the molar value.
Entry flag: t if pIC50 reaches 9; f if it does not.

Study these solved cases before continuing.
1) CC(C)(O)c1nc2c(-c3cc(Cl)nc(C(F)(F)F)c3)c(-c3ccc(F)cc3)nc(N)n2n1
f
2) COc1ccc(-c2c(-c3ccccc3)nc(N)n3ncnc23)cc1Cl
f
3) Cc1cc(-c2c(-c3cccc(F)c3F)nc(N)n3ncnc23)cc(C(F)(F)F)n1
t
4) COc1ccccc1-c1nc(N)n2nc(CO)nc2c1-c1cc(C)nc(C(F)(F)F)c1
f
5) Nc1nc(-c2ccccc2)c(-c2ccc3c(c2)OCO3)c2ncnn12
f
6) CCc1nc2c(-c3cc(C)nc(C(F)(F)F)c3)c(-c3ccccc3OC)nc(N)n2n1
f
7) Cc1cc(-c2c(-c3ccc(F)cc3)nc(N)n3nc(C(F)(F)F)nc23)cc(C(F)(F)F)n1
f
8) Cc1cc(-c2c(-c3ccccc3)nc(N)n3nc(CO)nc23)cc(C)n1
t

Query block: Tell me whether pIC50 is at least 9 here: Nc1nc(-c2ccc(F)cc2)c(-c2ccc3[nH]nnc3c2)c2nc(C(F)(F)F)nn12
Result block: f

Query block: Please check the record Cc1cc(-c2c(-c3ccccc3)nc(N)n3nc(C(=O)NCc4ccc(F)cc4F)nc23)cc(C)n1 and state if its pIC50 is at or above 9.
Result block: f

* * *

assay: Pharmacokinetics in female Balb/c mice; type: in vivo; conditions: mouse, plasma, single intravenous injection / single oral administration, read-out: Concentration integral AUC
Quantity kind: AUC (µM·h)
Reply with just the number (in µM·h).

Example entries begin here.
1) Cc1cc(-c2c(-c3ccccc3)nc(N)n3nc(CO)nc23)cc(C(F)(F)F)n1
22
2) Cc1cc(-c2c(-c3ccccc3)nc(N)n3nc(C(F)(F)F)nc23)cc(C)n1
24.9
3) Cc1cc(-c2c(-c3ccccc3)nc(N)n3ncnc23)cc(C(F)(F)F)n1
3.33

// switching to the query compound
Query block: Answer with the recorded AUC for the compound listed here: Cc1cc(-c2c(-c3ccc(F)cc3)nc(N)n3nc(C(F)(F)F)nc23)cc(C)n1
Result block: 71.7

* * *

test: Pharmacokinetics in female Balb/c mice; type: in vivo; details: mouse, plasma, single intravenous injection / single oral administration
log10 clearance reference
Each number you see is log10 of clearance, and the unit inside the log is mL/min/kg.

1) Cc1cc(-c2nnc(N)nc2-c2ccccc2)cc(C(F)(F)F)n1 [Compound A, reference compound]
2.32
2) Cc1cc(-c2c(-c3ccc(F)cc3)nc(N)n3nc(C)nc23)cc(C(F)(F)F)n1
-0.27
3) Cc1cc(-c2c(-c3ccccc3)nc(N)n3ncnc23)cc(C)n1
1.38
4) Cc1cc(-c2c(-c3ccccc3)nc(N)n3nc(CO)nc23)cc(C(F)(F)F)n1
1.26
5) Cc1cc(-c2c(-c3ccc(F)cc3)nc(N)n3nc(C(F)(F)F)nc23)cc(C)n1
0.60

Query block: Tell me measured log10 clearance for Cc1cc(-c2c(-c3ccccc3)nc(N)n3nc(C(F)(F)F)nc23)cc(C(F)(F)F)n1 please.
Result block: 1.07

Query block: # return recorded log10 clearance for input Cc1cc(-c2c(-c3ccccc3)nc(N)n3ncnc23)cc(Cl)n1
Result block: 1.65

Query block: Identify measured log10 clearance associated with Cc1cc(-c2c(-c3ccccc3)nc(N)n3ncnc23)cc(C(F)(F)F)n1
Result block: 1.71

Query block: Indicate the recorded log10 clearance value for this molecule: Nc1nc(-c2ccc(F)cc2)c(-c2cc(Cl)nc(C(F)(F)F)c2)c2nc(CO)nn12
Result block: 0.40

Query block: For the molecule Cc1cc(-c2c(-c3ccccc3)nc(N)n3nc(C(F)(F)F)nc23)cc(C)n1 , report log10 clearance.
Result block: 0.94

* * *

solubility at 24 h values, listed per item
experiment: Determination of kinetic solubility; format: physicochemical; conditions: aqueous buffer, kinetic from dmso stock, 50 mM phosphate buffer pH 7.4, 24 hours, room temperature, 200 μM maximum

1. Cc1cc(-c2nnc(N)nc2-c2ccccc2)cc(C(F)(F)F)n1 [Compound A, reference compound]
29.2 µM

Query block: Let me know recorded solubility at 24 h for Cc1cc(-c2c(-c3ccccc3)nc(N)n3nc(CO)nc23)cc(C(F)(F)F)n1 , thanks.
Result block: > 200 µM

Query block: Look up solubility at 24 h of Cc1cc(-c2c(-c3ccc(F)cc3)nc(N)n3nc(CO)nc23)cc(C(F)(F)F)n1 and report it.
Result block: 168 µM

Query block: Look up and report measured solubility at 24 h for this entry: Nc1nc(-c2ccc(F)cc2)c(-c2cc(Cl)nc(C(F)(F)F)c2)c2nc(CO)nn12
Result block: 78.9 µM

Query block: Provide only the value of recorded solubility at 24 h for Cc1cc(-c2c(-c3ccc(F)cc3)nc(N)n3nc(C)nc23)cc(C(F)(F)F)n1
Result block: 172 µM

Query block: Note solubility at 24 h for the compound shown: Cc1cc(-c2c(-c3ccccc3)nc(N)n3nc(CO)nc23)cc(C)n1
Result block: 194 µM

Query block: Note down solubility at 24 h recorded for Nc1nc(-c2ccccc2)c(-c2cc(Cl)nc(C(F)(F)F)c2)c2ncnn12
Result block: 54.5 µM

Query block: Quote solubility at 24 h reported for Cc1cc(-c2c(-c3ccccc3)nc(N)n3ncnc23)cc(Cl)n1 please.
Result block: 56 µM

* * *

Attribute: bioavailability
experiment: Pharmacokinetics in female Balb/c mice; assay type: in vivo; conditions: mouse, plasma, single intravenous injection / single oral administration, read-out: Bioavailability F
Dear colleague, please return just the value in %, with no unit written.

// known answers, use as guide
1. Nc1nc(-c2ccc(F)cc2)c(-c2cc(Cl)nc(C(F)(F)F)c2)c2nc(CO)nn12
123
2. Cc1cc(-c2c(-c3ccccc3)nc(N)n3nc(C(F)(F)F)nc23)cc(C(F)(F)F)n1
40.5
3. Cc1cc(-c2c(-c3cccc(F)c3)nc(N)n3ncnc23)cc(C(F)(F)F)n1
62.1
4. Cc1cc(-c2nnc(N)nc2-c2ccccc2)cc(C(F)(F)F)n1 [Compound A, reference compound]
21.6
5. Cc1cc(-c2c(-c3ccccc3)nc(N)n3ncnc23)cc(Cl)n1
17.4

Query block: State, in one line, measured bioavailability of Cc1cc(-c2c(-c3ccc(F)cc3)nc(N)n3nc(C(F)(F)F)nc23)cc(Cl)n1
Result block: 41.2

Query block: Using the record for Cc1cc(-c2c(-c3ccccc3)nc(N)n3ncnc23)cc(C(F)(F)F)n1 , state its measured bioavailability.
Result block: 41.1

Query block: Return reported bioavailability. Input compound: Cc1cc(-c2c(-c3ccccc3)nc(N)n3nc(C(F)(F)F)nc23)cc(C)n1
Result block: 50.4

* * *

assay: Pharmacokinetics in female Balb/c mice; type: in vivo; settings: mouse, plasma, single intravenous injection / single oral administration, read-out: Concentration integral AUC
Listed below: AUC values for each entry.
Response body: numeric value in µM·h, unit text excluded.

Here are 6 compounds together with their reported answers.
1. Cc1cc(-c2c(-c3ccccc3)nc(N)n3nc(C(F)(F)F)nc23)cc(C(F)(F)F)n1
13.2
2. Cc1cc(-c2c(-c3ccc(F)cc3)nc(N)n3nc(CO)nc23)cc(C(F)(F)F)n1
43.9
3. Cc1cc(-c2nnc(N)nc2-c2ccccc2)cc(C(F)(F)F)n1 [Compound A, reference compound]
0.501
4. Cc1cc(-c2c(-c3ccc(F)cc3)nc(N)n3nc(C(F)(F)F)nc23)cc(Cl)n1
25.1
5. Cc1cc(-c2c(-c3ccccc3)nc(N)n3nc(CO)nc23)cc(C)n1
8.79
6. Cc1cc(-c2c(-c3ccc(F)cc3)nc(N)n3nc(C)nc23)cc(C(F)(F)F)n1
20.1

Query block: Provide one value: measured AUC of Cc1cc(-c2c(-c3cccc(F)c3)nc(N)n3ncnc23)cc(C(F)(F)F)n1
Result block: 5.93

Query block: Supply measured AUC of Nc1nc(-c2ccc(F)cc2)c(-c2cc(Cl)nc(C(F)(F)F)c2)c2nc(CO)nn12 in your reply.
Result block: 157

Query block: Annotate the compound Cc1cc(-c2c(-c3ccccc3)nc(N)n3ncnc23)cc(C)n1 with its measured AUC.
Result block: 19.6

Query block: Name the recorded AUC of the item Cc1cc(-c2c(-c3ccccc3)nc(N)n3ncnc23)cc(Cl)n1 in your answer.
Result block: 1.73

* * *

target: Human adenosine A2A receptor (Homo sapiens, UniProt P29274); construct: host or cells: CHO; assay: Human adenosine A2A receptor calcium flux assay; format: cell-based; conditions: A2A stable CHO cell strain, antagonist mode against agonist NECA at EC80, FLIPR Fluo-4
pIC50: −log10 of the molar value.
Short version: pIC50 at least 8 is true, less is false.

Illustrative cases are given below, each with its answer.
1. Nc1nc(-c2ccccc2)c(-c2ccc3c(c2)CC(=O)N3)c2ncnn12 [Example B-20]
false
2. COc1ccc(F)cc1-c1nc(N)n2ncnc2c1-c1cc(Cl)nc(C(F)(F)F)c1 [Example A-32]
true
3. Nc1nc(-c2ccccc2)c(-c2ccc3[nH]nnc3c2)c2nc(COCc3ccccc3)nn12 [Example C-23]
true

Query block: Is reported pIC50 greater than or equal to 8 here: COc1cc(F)ccc1-c1nc(N)n2ncnc2c1-c1ccc2nn[nH]c2c1 [Example A-29]
Result block: false

Query block: Reported pIC50 reaches at least 8 for Cc1cc(-c2c(-c3ccc(F)cc3)nc(N)n3nc(CO)nc23)cc(Cl)n1 [Example C-44] ?
Result block: true

Query block: Check if pIC50 >= 8 (inclusive). Item: Cc1cc(-c2c(-c3ccccc3)nc(N)n3nc(C)nc23)cc(C)n1 [Example C-6]
Result block: true
